Biological target: T1, human cholecystokinin-1 receptor (human), P32238
T1 chain: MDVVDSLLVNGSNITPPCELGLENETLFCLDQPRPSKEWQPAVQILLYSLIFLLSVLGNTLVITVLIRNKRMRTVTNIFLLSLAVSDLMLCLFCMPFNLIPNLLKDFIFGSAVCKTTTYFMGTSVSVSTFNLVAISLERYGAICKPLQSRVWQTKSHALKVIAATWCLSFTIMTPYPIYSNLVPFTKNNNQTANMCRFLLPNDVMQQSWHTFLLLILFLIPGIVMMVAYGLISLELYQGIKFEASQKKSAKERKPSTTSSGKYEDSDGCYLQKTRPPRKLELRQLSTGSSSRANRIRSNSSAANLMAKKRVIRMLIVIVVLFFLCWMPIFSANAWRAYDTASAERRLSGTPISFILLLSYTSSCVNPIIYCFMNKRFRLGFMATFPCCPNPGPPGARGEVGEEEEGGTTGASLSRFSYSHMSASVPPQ
Assay: cell-based or functional assay
Non-standard residues stand in square brackets, D forms with d. No end group written: not given here. sY = N[C@@H](Cc1ccc(OS(=O)(=O)O)cc1)C(=O)O; NMeF = CN[C@@H](Cc1ccccc1)C(=O)O
Measure name: EC50 (CCK-1R) (nM)
One number for each entry, in nM.

For every record below, what is its EC50 (CCK-1R)?
1. D[sY]LGWP[DMeAsp][NMeF]-NH2 [Asp-sTyr-Leu-Gly-Trp-Pro-DMeAsp-MePhe-amide]
2. D[sY]LGWI[DMeAsp][NMeF]-NH2 [Asp-sTyr-Leu-Gly-Trp-Ile-DMeAsp-MePhe-amide]

Output:
1: 0.34; 2: 0.24

Each binder below has a reported value. Please supply its EC50 (CCK-1R).
1. D[sY]LGWL[DMeAsp][NMeF]-NH2 [Asp-sTyr-Leu-Gly-Trp-Leu-DMeAsp-MePhe-amide]
2. D[sY]LGWQ[DMeAsp][NMeF]-NH2 [Asp-sTyr-Leu-Gly-Trp-Gln-DMeAsp-MePhe-amide]

Output:
[0.25, 0.15]
